The measurements presented in this section are drawn from ChEMBL document CHEMBL1201861.

Test system: NCI-H716;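 further: growth inhibition of human NCI-H716 cells, measured by a cell viability assay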
Assay: cells
Format: functional, cell-based
Settings: Homo sapiens
Description: SANGER: Inhibition of human NCI-H716 cell growth in a cell viability assay.
pIC50: −log10 of the molar value.
experimental.endpoint: pIC50

1) N#C/C(=C1/Nc2ccccc2S1)c1ccnc(NCCc2cccnc2)n1 | < 5.10

// field: pIC50; key: Cc1[nH]c(/C=C2\C(=O)Nc3ccc(S(=O)(=O)Cc4c(Cl)cccc4Cl)cc32)c(C)c1C(=O)N1CCC[C@@H]1CN1CCCC1 ; value = < 5.70

// field: pIC50; key: Cc1ccc(NC(=O)c2cccc(C(C)(C)C#N)c2)cc1Nc1ccc2ncn(C)c(=O)c2c1 ; value = < 5.40

// field: pIC50; key: COc1cc(C)c(Sc2cnc(NC(=O)c3ccc(CNC(C)C(C)(C)C)cc3)s2)cc1C(=O)N1CCN(C(C)=O)CC1 (centres undefined) ; value = < 4.99

###

Tested on: GMS-10;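 further: growth inhibition of GMS-10 cells, read out as cell viability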
Experiment: cells
Type: functional, cell-based
Details: Homo sapiens
Description: SANGER: Inhibition of human GMS-10 cell growth in a cell viability assay.
experimental.endpoint: IC50 (nM)
Answer with a number only, understood to be in nM.

1. CC[C@@]1(O)C(=O)OCc2c1cc1n(c2=O)Cc2cc3ccccc3nc2-1 | 7.31

// moving on: another record for IC50
// field: IC50; key: C[C@]12O[C@H](C[C@]1(O)CO)n1c3ccccc3c3c4c(c5c6ccccc6n2c5c31)CNC4=O ; value = 463

###

System: PANC-03-27
Experiment: cells
Type: functional, cell-based
Conditions: Homo sapiens
Description: SANGER: Inhibition of human PANC-03-27 cell growth in a cell viability assay.
# IC50 annotations
Answer with a number only, understood to be in nM.

1) CCNC(=O)c1noc(-c2cc(C(C)C)c(O)cc2O)c1-c1ccc(CN2CCOCC2)cc1 | 11.6

// moving on: another record for IC50
Assay PANC-03-27, sample CC(C)=CC[C@@H](O)C1=CC(=O)c2c(O)ccc(O)c2C1=O , IC50 read: 167

###

Tested on: NCI-H358;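 further: growth inhibition of NCI-H358 human cells, read out with a cell viability assay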
Assay: cells
Format: functional, cell-based
Details: Homo sapiens
Description: SANGER: Inhibition of human NCI-H358 cell growth in a cell viability assay.
# IC50 annotations
Answer with a number only, understood to be in nM.

# annotated cases, reported IC50 shown
1. CC[C@]1(O)C[C@@H]2CN(CCc3c([nH]c4ccccc34)[C@@](C(=O)OC)(c3cc4c(cc3OC)N(C)[C@H]3[C@@](O)(C(=O)OC)[C@H](OC(C)=O)[C@]5(CC)C=CCN6CC[C@]43[C@@H]65)C2)C1 | 37
2. Fc1cc(-c2cc[nH]/c(=N/c3ccc(-n4cnc(N5CCOCC5)n4)cc3)n2)cc(N2CCOCC2)c1 | 377

// field: IC50; key: N#C/C(=C1/Nc2ccccc2S1)c1ccnc(NCCc2cccnc2)n1 ; value = 1900

###

System: RL
Assay: cells
Format: functional, cell-based
Conditions: Homo sapiens
Description: SANGER: Inhibition of human RL cell growth in a cell viability assay.
pIC50: −log10 of the molar value.
experimental.endpoint: pIC50

1. C/C(O)=C(\C#N)C(=O)Nc1cc(Br)ccc1Br | < 4.80
2. CCn1c(-c2nonc2N)nc2cnc(Oc3cccc(NC(=O)c4ccc(OCCN5CCOCC5)cc4)c3)cc21 [GSK-269962A] | < 5.60

// moving on: another record for pIC50
// field: pIC50; key: COc1cc(C)c(Sc2cnc(NC(=O)c3ccc(CNC(C)C(C)(C)C)cc3)s2)cc1C(=O)N1CCN(C(C)=O)CC1 (stereo not drawn) ; value = < 4.99

###

Tested on: CHP-126
Assay: cells
Assay type: functional, cell-based
Conditions: Homo sapiens
Description: SANGER: Inhibition of human CHP-126 cell growth in a cell viability assay.
# pIC50 annotations
The read-out pIC50 is expressed as -log10 of concentration in moles per litre.

1) CC(C)=CC[C@@H](O)C1=CC(=O)c2c(O)ccc(O)c2C1=O | 6.16
2) C/C=C(/C)C(=O)O[C@H]1C(C)=C2[C@H]([C@@H]1OC(=O)CCCCCCC)[C@@](C)(OC(C)=O)C[C@H](OC(=O)CCC)[C@@]1(O)[C@H]2OC(=O)[C@@]1(C)O | 7.53

// moving on: another record for pIC50
Assay CHP-126, sample Cc1n[nH]c2ccc(-c3cncc(OC[C@@H](N)Cc4c[nH]c5ccccc45)c3)cc12 , pIC50 read: 6.57
